target: tyrosinase (Agaricus bisporus); construct: purchased Sigma-Aldrich; experiment: Kinetic analysis of tyrosinase (Lineweaver–Burk); format: biochemical, mushroom
readout.label: pKi
In simple prose, pKi is minus the logarithm base ten of a concentration in moles per litre.

Ask: Fill in the blank: the reported pKi of `O=C(O)[C@@H]1CCC(O)=N1` is ____.
Reply: 2.71

---

assay: L-DOPA auto-oxidation analysis; details: 37 °C, 12 h; calculated using SPSS; read-out: IC50 for L-DOPA auto-oxidation inhibition
readout.label: pIC50
In simple prose, pIC50 is minus the logarithm base ten of a concentration in moles per litre.

Ask: Fill in the blank: the reported pIC50 of O=C(O)C(O)Cc1ccccc1 (stereo not shown) is ____.
Reply: 3.20

Ask: Then this compound: CC(O)C(=O)O (stereo not shown)
Reply: 3.24

Ask: Then this compound: `O=C(O)[C@@H]1CCC(O)=N1`
Reply: 3.18

Ask: Then this compound: O=C(O)CC(O)C(=O)O (stereo not shown)
Reply: 3.42

---

target: tyrosinase (Agaricus bisporus, UniProt C7FF04); construct: purchased Sigma-Aldrich; assay: Fluorescence spectra analysis of tyrosinase; assay type: binding, mushroom; conditions: 6 mM; excitation 280 nm
Sequence (C7FF04 1-392 limits assumed): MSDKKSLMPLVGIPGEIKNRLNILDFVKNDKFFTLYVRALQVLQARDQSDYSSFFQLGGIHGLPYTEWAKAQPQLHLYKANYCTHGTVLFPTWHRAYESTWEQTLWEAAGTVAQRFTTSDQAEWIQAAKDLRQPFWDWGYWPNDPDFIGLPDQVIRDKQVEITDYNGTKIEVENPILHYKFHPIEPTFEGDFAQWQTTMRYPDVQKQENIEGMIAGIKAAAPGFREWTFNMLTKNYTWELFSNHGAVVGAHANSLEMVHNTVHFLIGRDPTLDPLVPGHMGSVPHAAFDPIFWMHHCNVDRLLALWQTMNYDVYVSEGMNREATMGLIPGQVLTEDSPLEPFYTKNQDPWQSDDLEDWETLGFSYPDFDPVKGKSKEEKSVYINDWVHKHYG
Assign decrease of tyrosinase fluorescence intensity to each entry below.
Express your answer in %, writing the number without its unit.

Ask: Fill in the blank: the reported decrease of tyrosinase fluorescence intensity of O=C(O)CC(O)C(=O)O (stereo not shown) is ____.
Reply: 29.0

Ask: Then this compound: `O=C(O)[C@@H]1CCC(O)=N1`
Reply: 48.6

Ask: Then this compound: CC(O)C(=O)O (stereo not shown)
Reply: 45.0

Ask: Then this compound: O=C(O)C(O)Cc1ccccc1 (stereo not shown)
Reply: 29.3

---

biological target: tyrosinase (Agaricus bisporus, UniProt C7FF04); construct: purchased Sigma-Aldrich; test: Kinetic analysis of tyrosinase (Lineweaver–Burk); assay type: biochemical, mushroom; conditions: Lineweaver–Burk double-reciprocal plots
readout.label: inhibition mechanism

[
  {
    "compound": "O=C(O)CC(O)C(=O)O (stereo not shown) [malic acid]",
    "study.target": "tyrosinase (Agaricus bisporus, UniProt C7FF04)",
    "val": "mixed-type inhibition"
  },
  {
    "compound": "O=C(O)C(O)Cc1ccccc1 (stereo not shown) [3-phenyllactic acid]",
    "study.target": "tyrosinase (Agaricus bisporus, UniProt C7FF04)",
    "val": "mixed-type inhibition"
  },
  {
    "compound": "CC(O)C(=O)O (stereo not shown) [lactic acid]",
    "study.target": "tyrosinase (Agaricus bisporus, UniProt C7FF04)",
    "val": "mixed-type inhibition"
  }
]

---

molecular target: tyrosinase (Agaricus bisporus, UniProt C7FF04); construct: purchased Sigma-Aldrich; assay: Kinetic analysis of tyrosinase (Lineweaver–Burk); assay type: biochemical, mushroom; conditions: GraphPad Prism, mixed-model or competitive model; read-out: inhibition constant (Ki)
readout.label: pKi
In simple prose, pKi is minus the logarithm base ten of a concentration in moles per litre.

Ask: Fill in the blank: the reported pKi of O=C(O)CC(O)C(=O)O (stereo not drawn) is ____.
Reply: 3.22

Ask: Then this compound: O=C(O)C(O)Cc1ccccc1 (stereo not drawn)
Reply: 2.80

Ask: Then this compound: CC(O)C(=O)O (stereo not drawn)
Reply: 2.57

---

assay: pH of carboxylic acid mixed with PBS buffer, without tyrosinase; assay type: physicochemical; conditions: 6 mM, in PBS buffer, absence of tyrosinase
Assign pH to each entry below.
# output: bare number, no unit

Ask: Fill in the blank: the reported pH of `O=C(O)[C@@H]1CCC(O)=N1` is ____.
Reply: 3.7

Ask: Then this molecule: O=C(O)CC(O)C(=O)O (stereo not shown)
Reply: 3.5
